Entry source: paper PMC11939848

- assay_target: IL-6 (UniProt P05231 30-212)
- Sequence (P05231 30-212): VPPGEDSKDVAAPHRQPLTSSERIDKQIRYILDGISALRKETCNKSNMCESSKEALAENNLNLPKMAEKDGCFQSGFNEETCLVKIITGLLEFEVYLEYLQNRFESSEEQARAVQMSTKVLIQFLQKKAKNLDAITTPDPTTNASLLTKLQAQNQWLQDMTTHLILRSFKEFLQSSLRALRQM
- run_description: graphene FET (Hill-Langmuir fit); 1000 Da PEG, PBS; 1x PBS, artificial sweat (10x diluted or undiluted) or undiluted lavage fluid; aptamer immobilized on graphene; pH and temperature not stated
- condition: protein: commercial
property: pKd
Quick note: pKd values are minus log10 of concentrations in mol/L.

Quick one: pKd of GGTGGCAGGAGGACTATTTATTTGCTTTTCT (ssDNA, 5'-NH2) [IL-6 aptamer] ?
10.08
